# log10 of EC50 per entry
Biological target: hV1a receptor (Homo sapiens)
Construct: expressed in transfected cells; host or cells: HEK-293
Sequence (P37288 whole entry): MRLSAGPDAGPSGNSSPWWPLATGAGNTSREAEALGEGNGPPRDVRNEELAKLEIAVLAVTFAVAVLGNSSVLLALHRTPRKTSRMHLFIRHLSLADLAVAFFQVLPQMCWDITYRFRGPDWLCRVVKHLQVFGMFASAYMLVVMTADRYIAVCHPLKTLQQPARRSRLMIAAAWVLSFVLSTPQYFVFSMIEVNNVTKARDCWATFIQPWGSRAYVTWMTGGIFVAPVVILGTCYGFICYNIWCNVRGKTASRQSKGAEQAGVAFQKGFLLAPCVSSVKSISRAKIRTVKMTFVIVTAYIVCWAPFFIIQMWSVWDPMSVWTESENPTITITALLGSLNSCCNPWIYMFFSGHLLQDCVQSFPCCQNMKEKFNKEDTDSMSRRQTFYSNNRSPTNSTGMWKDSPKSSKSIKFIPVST
Experiment: hV1a receptor transcriptional reporter (luciferase) agonist assay
Type: cell-based
Procedure: Agonist activity of compounds on the hV1a receptor was determined in a transcriptional reporter assay by transiently transfecting a hV1a receptor expression DNA into HEK-293 cells in concert with a reporter DNA containing intracellular calcium responsive promoter elements regulating expression of firefly luciferase. See Boss, V., Talpade, D. J., Murphy, T. J. J. Biol. Chem. 1996, May 3; 271(18), 10429-10432 for further guidance on this assay. […]
Starred links: 1 amine or outer side, 2 acyl side, 3 side chain; linkers in the order of their positions; H or OH if unused. Positions of bridges follow the written chain, without caps; N, C: chain ends. Non-standard residues stand in square brackets, D forms with d. Residues, ends and D or L forms follow the SMILES beside them. Ala(2-furyl) = N[C@@H](Cc1ccco1)C(=O)O; Orn(iPr) = CC(C)NCCC[C@H](N)C(=O)O; X1 = CCNCCC[C@H](N[*:1])C(=O)[*:2]; 2Pal = N[C@@H](Cc1ccccn1)C(=O)O; Orn(Pr) = CCCNCCC[C@H](N)C(=O)O; 2Thi = N[C@@H](Cc1cccs1)C(=O)O; Aad = N[C@@H](CCCC(=O)O)C(=O)O; Orn = NCCC[C@H](N)C(=O)O; Dab = NCC[C@H](N)C(=O)O
Friendly reminder: values = log10 of EC50, unit nM.

A selection of reference data follows.
Enquiry: Query the reported log10 of EC50 for hV1a receptor (Homo sapiens); item: CC[C@H](C)[C@@H]1NC(=O)[C@H](Cc2ccccc2)NC(=O)[C@@H](N)CSSC[C@@H](C(=O)N2CCC[C@H]2C(=O)N[C@@H](CCN)C(=O)NCC(N)=O)NC(=O)[C@H](CC(N)=O)NC(=O)[C@H](CCCC(N)=O)NC1=O [Compound 11] (H-CFI[Aad](NH2)NCP[Dab]G-NH2; disulfide 1-6)
Return: 0.47

Enquiry: And what about the compound CC[C@H](C)[C@@H]1NC(=O)[C@H](Cc2ccccc2)NC(=O)[C@@H](N)CSSC[C@@H](C(=O)N2CCC[C@H]2C(=O)N[C@@H](CCCN)C(=O)NCC(N)=O)NC(=O)[C@H](CC(N)=O)NC(=O)[C@H](CC(=O)N(C)C)NC1=O [Compound 7] (H-CFID(NMe2)NCP[Orn]G-NH2; disulfide 1-6) ?
Return: 0.45

Enquiry: Try this compound too: CC[C@H](C)[C@@H]1NC(=O)[C@H](Cc2ccco2)NC(=O)[C@@H](N)CSSC[C@@H](C(=O)N2CCC[C@H]2C(=O)N[C@@H](CCCNC(C)C)C(=O)NCC(N)=O)NC(=O)[C@H](CC(N)=O)NC(=O)[C@H](CC(N)=O)NC1=O [Compound 42] (H-C[Ala(2-furyl)]INNCP[Orn(iPr)]G-NH2; disulfide 1-6)
Return: 0.80

Enquiry: Also need CC[C@H](C)[C@@H]1NC(=O)[C@H](Cc2cccs2)NC(=O)[C@@H](N)CSSC[C@@H](C(=O)N2CCC[C@H]2C(=O)N[C@@H](CCCNC(C)C)C(=O)NCC(N)=O)NC(=O)[C@H](CC(N)=O)NC(=O)[C@H](CCC(N)=O)NC1=O [Compound 34] (H-C[2Thi]IQNCP[Orn(iPr)]G-NH2; disulfide 1-6) , thanks.
Return: -0.14

Enquiry: Same question, CC[C@H](C)[C@@H]1NC(=O)[C@H](Cc2ccco2)NC(=O)[C@@H](N)CSSC[C@@H](C(=O)N2CCC[C@H]2C(=O)N[C@@H](CCCN)C(=O)NCC(N)=O)NC(=O)[C@H](CC(N)=O)NC(=O)[C@H](CCC(N)=O)NC1=O [Compound 25] (H-C[Ala(2-furyl)]IQNCP[Orn]G-NH2; disulfide 1-6) this time
Return: 0.15

Enquiry: Same question for CCNCCC[C@H](NC(=O)[C@@H]1CCCN1C(=O)[C@@H]1CSSC[C@H](N)C(=O)N[C@@H](Cc2ccccc2)C(=O)N[C@@H]([C@@H](C)CC)C(=O)N[C@@H](CCC(N)=O)C(=O)N[C@@H](CC(N)=O)C(=O)N1)C(=O)NCC(N)=O [Compound 6] (H-CFIQNCP[X1]G-NH2; disulfide 1-6; N-terminus and C-terminus assumed) please.
Return: -0.54

Enquiry: Entry CCCNCCC[C@H](NC(=O)[C@@H]1CCCN1C(=O)[C@@H]1CSSC[C@H](N)C(=O)N[C@@H](Cc2ccccc2)C(=O)N[C@@H]([C@@H](C)CC)C(=O)N[C@@H](CCC(N)=O)C(=O)N[C@@H](CC(N)=O)C(=O)N1)C(=O)NCC(N)=O [Compound 40] (H-CFIQNCP[Orn(Pr)]G-NH2; disulfide 1-6; N-terminus and C-terminus assumed) please
Return: -0.57

Enquiry: And what about the compound CC[C@H](C)[C@@H]1NC(=O)[C@H](Cc2ccccc2)NC(=O)[C@@H](N)CSSC[C@@H](C(=O)N2CCC[C@H]2C(=O)N[C@@H](CCN)C(=O)NCC(N)=O)NC(=O)[C@H](CC(N)=O)NC(=O)[C@H](CC(N)=O)NC1=O [Compound 3] (H-CFINNCP[Dab]G-NH2; disulfide 1-6) ?
Return: 0.17

Enquiry: Then this compound: CC[C@H](C)[C@@H]1NC(=O)[C@H](Cc2ccccc2)NC(=O)[C@@H](N)CSSC[C@@H](C(=O)N2CCC[C@H]2C(=O)N[C@@H](CCCNC(C)C)C(=O)NCC(N)=O)NC(=O)[C@H](CC(N)=O)NC(=O)[C@H](CCC(N)=O)NC1=O [Compound 5] (H-CFIQNCP[Orn(iPr)]G-NH2; disulfide 1-6; N-terminus and C-terminus assumed)
Return: -0.60

Enquiry: What would you report for CC[C@H](C)[C@@H]1NC(=O)[C@H](Cc2ccccc2)NC(=O)[C@@H](N)CSSC[C@@H](C(=O)N2CCC[C@H]2C(=O)N[C@@H](CCCNC(C)C)C(=O)NCC(N)=O)NC(=O)[C@H](CC(N)=O)NC(=O)[C@H](CC(N)=O)NC1=O [Compound 41] (H-CFINNCP[Orn(iPr)]G-NH2; disulfide 1-6) ?
Return: -0.01

---
Enquiry: Could you share what log10 of EC50 was measured for CC[C@H](C)[C@@H]1NC(=O)[C@H](Cc2ccccc2)NC(=O)[C@@H](N)CSSC[C@@H](C(=O)N2CCC[C@H]2C(=O)N[C@@H](CCCN)C(=O)NCC(N)=O)NC(=O)[C@H](CC(N)=O)NC(=O)[C@H](CCCC(N)=O)NC1=O [Compound 9] (H-CFI[Aad](NH2)NCP[Orn]G-NH2; disulfide 1-6) , tested on hV1a receptor (Homo sapiens)?
Return: -0.17

Enquiry: Please answer likewise for CC[C@H](C)[C@@H]1NC(=O)[C@H](Cc2ccccn2)NC(=O)[C@@H](N)CSSC[C@@H](C(=O)N2CCC[C@H]2C(=O)N[C@@H](CCN)C(=O)NCC(N)=O)NC(=O)[C@H](CC(N)=O)NC(=O)[C@H](CCC(N)=O)NC1=O [Compound 17] (H-C[2Pal]IQNCP[Dab]G-NH2; disulfide 1-6)
Return: 1.48

----------
Measured in vivo duration relative to AVP, listed per entry for reference.
tested on: anaesthetised Sprague-Dawley male rats; assay: in vivo duration of action, blood pressure test in anaesthetised rats; parameters: species or system rat; details: ratio of decay rate of diastolic blood pressure response, AVP 0.1 nmol/kg i.v. to equieffective dose of compound; dibenamine-pretreated rats
Starred links: 1 amine or outer side, 2 acyl side, 3 side chain; linkers in the order of their positions; H or OH if unused. Positions of bridges follow the written chain, without caps; N, C: chain ends. Non-standard residues stand in square brackets, D forms with d. Residues, ends and D or L forms follow the SMILES beside them. *: point of attachment. Orn(Me) = CN(CCC[C@H](N[*:1])C(=O)[*:2])[*:3]; X2 = CONC(=O)CC[C@H](N[*:1])C(=O)[*:2]; Orn(iPr) = CC(C)NCCC[C@H](N)C(=O)O; Orn(Pr) = CCCNCCC[C@H](N)C(=O)O; NH(3-hydroxypropyl) = OCCCN*; Orn = NCCC[C@H](N)C(=O)O
Could you respond with only the numeric value?

Recorded results for 5 molecules are shown here.
Enquiry: # in vivo duration relative to AVP lookup, item CC[C@H](C)[C@@H]1NC(=O)[C@H](Cc2ccccc2)NC(=O)[C@@H](N)CSSC[C@@H](C(=O)N2CCC[C@H]2C(=O)N[C@@H](CCCN)C(=O)NCC(N)=O)NC(=O)[C@H](CC(N)=O)NC(=O)[C@H](CCC(=O)NOC)NC1=O [Compound 10] (H-CFI[X2]NCP[Orn]G-NH2; disulfide 1-6; N-terminus and C-terminus assumed)
Return: 2.3

Enquiry: For CC[C@H](C)[C@@H]1NC(=O)[C@H](Cc2ccccc2)NC(=O)[C@@H](N)CSSC[C@@H](C(=O)N2CCC[C@H]2C(=O)N[C@@H](CCCNC(C)C)C(=O)NCC(N)=O)NC(=O)[C@H](CC(N)=O)NC(=O)[C@H](CCC(N)=O)NC1=O [Compound 5] (H-CFIQNCP[Orn(iPr)]G-NH2; disulfide 1-6; N-terminus and C-terminus assumed) then?
Return: 1.9

Enquiry: Try CC[C@H](C)[C@@H]1NC(=O)[C@H](Cc2ccccc2)NC(=O)[C@@H](N)CSSC[C@@H](C(=O)N2CCC[C@H]2C(=O)N[C@@H](CCCN)C(=O)NCC(N)=O)NC(=O)[C@H](CC(N)=O)NC(=O)[C@H](CC(=O)NCCCO)NC1=O [Compound 2] (H-CFID(NH(3-hydroxypropyl))NCP[Orn]G-NH2; disulfide 1-6) next.
Return: 1.7

Enquiry: Next: CCCNCCC[C@H](NC(=O)[C@@H]1CCCN1C(=O)[C@@H]1CSSC[C@H](N)C(=O)N[C@@H](Cc2ccccc2)C(=O)N[C@@H]([C@@H](C)CC)C(=O)N[C@@H](CCC(N)=O)C(=O)N[C@@H](CC(N)=O)C(=O)N1)C(=O)NCC(N)=O [Compound 40] (H-CFIQNCP[Orn(Pr)]G-NH2; disulfide 1-6; N-terminus and C-terminus assumed)
Return: 2.0

Enquiry: # repeat for CC[C@H](C)[C@@H]1NC(=O)[C@H](Cc2ccccc2)NC(=O)[C@@H](N)CSSC[C@@H](C(=O)N2CCC[C@H]2C(=O)N[C@@H](CCCNC)C(=O)NCC(N)=O)NC(=O)[C@H](CC(N)=O)NC(=O)[C@H](CC(N)=O)NC1=O [Compound 46] (H-CFINNCP[Orn(Me)]G-NH2; disulfide 1-6; N-terminus and C-terminus assumed)
Return: 2.1

New cases:
Enquiry: Reported in vivo duration relative to AVP, molecule CC[C@H](C)[C@@H]1NC(=O)[C@H](Cc2ccccc2)NC(=O)[C@@H](N)CSSC[C@@H](C(=O)N2CCC[C@H]2C(=O)N[C@@H](CCCNC(C)C)C(=O)NCC(N)=O)NC(=O)[C@H](CC(N)=O)NC(=O)[C@H](CC(N)=O)NC1=O [Compound 41] (H-CFINNCP[Orn(iPr)]G-NH2; disulfide 1-6) : ____
Return: 2.6
